- Test system: LPETG (Abz-LPETGK(Dnp)-CONH2)
- method summary: In vitro sortase kinetics HPLC assay, LPETG substrate
- Format: biochemical
- test settings: Example 5 variants; substrate wt (LPETG); read-out: Avg KM
- Description: See below for details on sortase expression and purification, and on the synthesis of Abz-LPETGK(Dnp)-CONH2 (SEQ ID NO: 19). […] Reactions were initiated with the addition of enzyme and incubated at 22.5° C. for 3 to 20 minutes before quenching with 0.5 volumes of 1 M HCl. […] Percent conversion was also calculated by using the ratio of the integrated areas of the GK(Dnp)-CONH2 and Abz-LPETGK(Dnp)-CONH2 peptide Abs355 peaks were compared directly (Example 5). […]
value type: Km (µM)
# unit: µM | format: bare number

molecule	units	Km
eSrtA(2A-3): round 3 LAETG clone: eSrtA + K84R F122S D124G K134R K145E K162R V168I K177R I182F (protein) QAKPQIPKDKSKVAGYIEIPDADIREPVYPGPATREQLNRGVSFAEENESLDDQNISIAGHTSIGRPNYQFTNLRAAKKGSMVYFEVGNETRKYKMTSIRNVRPTAVEILDEQKGKDRQLTLFTCDDYNEETGVWETRKIFVATEVK	µM	2100

Field: next molecule
Reported Km for eSrtA(4S-9): P94R, N98D, S102C, A104V, A118T, F122A, K134R, F144L, D160N, D165A, I182V, E189F, K190E, K196T (protein) QAKPQIPKDKSKVAGYIEIPDADIKEPVYPGPATREQLDRGVCFVEENESLDDQNISITGHTAIDRPNYQFTNLRAAKKGSMVYLKVGNETRKYKMTSIRNVKPTAVEVLDEQKGKDKQLTLVTCDDYNFETGVWETRKIFVATEVK : what is it? 66.1
